- Assayed target: TSH receptor of isolated porcine thyroid cells (porcine, UniProt Q8SPP9 22-764)
- Sequence (Q8SPP9 22-764): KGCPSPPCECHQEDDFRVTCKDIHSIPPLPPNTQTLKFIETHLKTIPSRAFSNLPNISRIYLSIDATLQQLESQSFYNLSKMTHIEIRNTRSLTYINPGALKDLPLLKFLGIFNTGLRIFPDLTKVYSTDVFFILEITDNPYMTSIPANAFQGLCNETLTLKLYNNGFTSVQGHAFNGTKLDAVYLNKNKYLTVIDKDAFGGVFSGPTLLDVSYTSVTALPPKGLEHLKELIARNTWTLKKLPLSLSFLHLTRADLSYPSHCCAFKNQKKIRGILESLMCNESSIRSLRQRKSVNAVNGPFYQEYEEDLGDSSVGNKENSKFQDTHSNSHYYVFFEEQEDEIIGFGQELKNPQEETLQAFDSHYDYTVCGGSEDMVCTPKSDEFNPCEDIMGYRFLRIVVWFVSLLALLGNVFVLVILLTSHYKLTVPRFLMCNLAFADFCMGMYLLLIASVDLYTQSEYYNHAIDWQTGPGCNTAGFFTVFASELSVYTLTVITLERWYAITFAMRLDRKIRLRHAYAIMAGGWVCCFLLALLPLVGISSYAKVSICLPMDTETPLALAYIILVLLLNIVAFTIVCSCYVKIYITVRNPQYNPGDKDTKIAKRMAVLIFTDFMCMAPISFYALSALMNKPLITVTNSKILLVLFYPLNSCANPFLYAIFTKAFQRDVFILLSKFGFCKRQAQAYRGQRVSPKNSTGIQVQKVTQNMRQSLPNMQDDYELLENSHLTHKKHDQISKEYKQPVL
- Assay comment: cell-based or functional assay
Reported metric: Stimulation (%) of cyclic AMP, isolated porcine thyroid cells; 200 µg/ml
The reply should be a number in %, with the unit left off.

# count of solved cases: 2
17D2 Fab (Fab, V domains shown, Fab of the mouse MAb) VH: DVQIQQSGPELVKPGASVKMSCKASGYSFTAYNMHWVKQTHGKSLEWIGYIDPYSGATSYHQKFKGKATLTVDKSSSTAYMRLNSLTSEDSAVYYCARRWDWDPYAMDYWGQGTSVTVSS VL: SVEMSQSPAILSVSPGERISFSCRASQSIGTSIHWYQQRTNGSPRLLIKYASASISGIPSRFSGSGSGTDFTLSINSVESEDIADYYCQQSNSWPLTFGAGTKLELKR; 274
16E5 IgG (antibody, V domains shown, not shown: a dimerising Fc or GST, mouse monoclonal IgG; also called MAb 16E5) VH: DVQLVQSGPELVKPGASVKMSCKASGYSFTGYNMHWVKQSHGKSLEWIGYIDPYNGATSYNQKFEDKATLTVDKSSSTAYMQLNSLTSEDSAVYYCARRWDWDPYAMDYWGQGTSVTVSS VL: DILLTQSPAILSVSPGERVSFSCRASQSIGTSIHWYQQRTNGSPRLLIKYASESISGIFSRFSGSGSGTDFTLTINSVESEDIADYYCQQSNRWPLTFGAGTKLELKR; 466

Could you now look at the following binder, please?
## Task Requested field: Stimulation (%) of cyclic AMP, isolated porcine thyroid cells; 200 µg/ml. Item: 14D3 Fab (Fab, V domains shown, Fab of the mouse MAb) VH: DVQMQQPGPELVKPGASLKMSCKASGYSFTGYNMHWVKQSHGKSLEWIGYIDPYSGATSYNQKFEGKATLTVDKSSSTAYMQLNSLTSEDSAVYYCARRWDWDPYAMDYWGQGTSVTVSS VL: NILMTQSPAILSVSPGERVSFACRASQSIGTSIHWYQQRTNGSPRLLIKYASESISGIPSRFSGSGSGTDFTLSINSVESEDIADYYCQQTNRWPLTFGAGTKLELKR
## Result 648
